Reference source: ChEMBL document CHEMBL1134541

- experimentalTarget: Collagenase 3 (Homo sapiens)
Readings of pIC50 for the listed compounds
In simple prose, pIC50 is minus the logarithm base ten of a concentration in moles per litre.

Known results for compounds:
| compound | valueKind | endpointResult |
| --- | --- | --- |
| COCCOC(=O)N1CCC(C(C(=O)O)N(CCOC)S(=O)(=O)c2ccc(-c3ccc(OC)cc3)cc2)CC1 (stereo not drawn) | pIC50 | 9.00 |
| O=C(CC(CSc1ccccc1)C(=O)O)c1ccc(-c2ccc(Cl)cc2)cc1 (stereo not drawn) | pIC50 | 5.80 |

Prompt: Short answer please: pIC50, Collagenase 3 (Homo sapiens), entry COCCOC(=O)N1CCC(C(C(=O)O)N(Cc2ccccn2)S(=O)(=O)c2ccc(-c3ccc(OC)cc3)cc2)CC1 (stereo not drawn)
Response: 8.52
